Where these numbers come from: ChEMBL document CHEMBL5226294

- method-description: Cytotoxicity against mouse EAC cell assessed as reduction in cell viability incubated for 3 hrs by tryphan blue dye based assay
- Type: toxicity
- test-conditions: EAC (Ehrlich) cells
Where a SMILES comes first, the peptide text is derived from it.
assay-endpoint: CC50 at 3 h (µM)
Numbers only, in µM.

molecule	CC50 at 3 h, µM
CC(C)C[C@@H]1NC(=O)CNC(=O)[C@H](Cc2ccccc2)NC(=O)[C@H](Cc2ccc(O)cc2)NC(=O)[C@@H]2CCCN2C(=O)CNC1=O [Cherimolacyclopeptide E] (cyclo(FGLGPY))	4.96
O=c1[nH]cc(F)c(=O)[nH]1	37.4

Check the records and state CC50 at 3 h for CC[C@H](C)[C@@H]1NC(=O)[C@@H]2CCCN2C(=O)[C@H](C(C)C)NC(=O)[C@H](C)NC(=O)CNC(=O)[C@@H]2CCCN2C(=O)[C@H](C)NC(=O)[C@H](Cc2ccc(O)cc2)NC1=O (cyclo(APGAVPIY))
11.9
